Measured melting point accompanies every entry in the list below.
Where a name gives a salt, the structure may show the parent alone.

Recorded melting point, per entry:
- compound: "Cl.Cn1c(=O)c(-c2ccccc2Cl)cc2cnc(NC3CCN(CCO)CC3)nc21"
  melting point: "265.9 to 266.6 °C"
- compound: "Cc1ccccc1-c1cc2cnc(NC3CCSCC3)nc2n(C)c1=O [Cpd 140]"
  melting point: "186.6 to 188.1 °C"
- compound: "Cl.Nn1c(=O)c(-c2ccccc2Cl)cc2cnc(NC3CCOCC3)nc21"
  melting point: "207.1 to 215.9 °C"
- compound: "Cl.Cn1c(=O)c(-c2ccccc2F)cc2cnc(NC3CCN(S(C)(=O)=O)CC3)nc21"
  melting point: "205 to 207.5 °C"

Next:
Please look up its melting point: Cn1c(=O)c(-c2ccccc2Cl)cc2cnc(N[C@H]3CC[C@H](N)CC3)nc21 (as salt: HCl) [Example 38]
163.4 to 171.1 °C

Where do the numbers come from? From patent US6506749B2.
